- Test system: ADCK4;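 further: KINOMEscan kinase panel screen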
- Stated conditions: concentration: 1 μM, replicates: in singlicate; n = 1
Recorded %Inh, one value per entry.
Readout: %Inh (%)

                                   molecule  readout  recorded_result
0               CCC(CC)(CC)n1cnc2c(N)ncnc21     %Inh                9
1      Nc1nc(-c2ccccn2)c(-c2ccnc3ccccc23)s1     %Inh               44
2  C[C@H]1CC[C@@H](C(=O)Nc2ccccc2)CN1c1cc(-c2ccc3c(N)n[nH]c3c2)nc(N)n1     %Inh               40
3  COc1ccc(-c2oc3ncnc(N)c3c2-c2ccc(OC)cc2)cc1     %Inh               55
4  OCCOCCn1ccc2ncnc(Nc3ccc(Oc4cccc(Cl)c4)c(Cl)c3)c21     %Inh                0
5   CSc1ccc(NC2=C(c3ccccc3Cl)C(=O)NC2=O)cc1     %Inh                0
6  Cl.c1ccc(Cn2ncc3cc(Nc4ncnc5ccccc45)ccc32)cc1     %Inh               22
7  COc1ccc(Nc2nccc(N3CCC(NC(=O)Nc4ccc5c(c4)OCO5)C3)n2)cc1 (stereo not drawn)     %Inh               41
8  O=c1cc(N2CCOCC2)nc2n(Cc3cccc(Cl)c3)ccn12     %Inh                0
